System: HCV replicon
Assay: microbe, parasite or virus in culture
Type: cell-based
Conditions: Hepatitis C virus, 48 h, read-out: Replicon IC5Os
pIC50: −log10 of the molar value.
Record form. Attribute: pIC50. Fill in for each entry.

For orientation, consider the following solved cases.
{"columns": ["MOLECULE", "pIC50"],
 "data": [
  ["CCn1c(-c2cccc(NC(=O)OCc3ccccc3)c2)c(C#N)c2ccc(OC)cc21", "5.70 to 6.30"],
  ["CCn1c(-c2ccc(NC(=O)Nc3ccc(C(C)C)cc3)cc2)c(C#N)c2ccc(OC)cc21", "5.70 to 6.30"],
  ["CCCS(=O)(=O)Nc1ccc(-c2c(C#N)c3cc(Cl)ccc3n2CC)cc1", "> 6.30"],
  ["CCCS(=O)(=O)Nc1ccc(-c2c(C#N)c3ccc(C(F)(F)F)cc3n2CC)cc1", "5.70 to 6.30"],
  ["COc1ccc2c(C#N)c(-c3cccc(NC(=O)OC(C)C)c3)n(C3CCCC3)c2c1", "5.70 to 6.30"]
]}

Please state pIC50 for every molecule in the list that follows.
1. CCn1c(-c2ccc(NS(C)(=O)=O)cc2)c(C#N)c2ccc(C(F)(F)F)cc21
2. C=CC(C)OC(=O)Nc1cccc(-c2c(C#N)c3ccc(OC)cc3n2CC)c1 (centres unmarked)
3. CCCCn1c(-c2ccc(NS(=O)(=O)C3CC3)cc2)c(C#N)c2ccc(OC)cc21

["> 6.30", "5.70 to 6.30", "> 6.30"]
